This collection of values is drawn from ChEMBL document CHEMBL1127824.

# Organism: Homo sapiens
# Protocol Description: tissue or blood
# Type: functional, organism-based
# Test Parameters: Plasma
# Description: Inhibition of collagen-induced platelet aggregation in human platelet-rich plasma.
Hi! Could you tag entries with EC50 below 10 µM as Met, and those at or above as Not met? Much appreciated.

Compound	Class
O=C(O)CCC/C=C(\c1ccc(CCN(Cc2ccccc2)S(=O)(=O)c2ccc(Cl)cc2)cc1)c1cccnc1	Not met
Cc1cc(C)c(S(=O)(=O)NCCc2ccc(/C(=C\CCCC(=O)O)c3cccnc3)cc2)c(C)c1	Not met
Cn1c(CCNS(=O)(=O)c2ccc(F)cc2)ccc1/C(=C\CCCC(=O)O)c1cccnc1	Met
O=C(O)CCCCO/N=C(/c1cccnc1)c1cccc(C(F)(F)F)c1	Not met
O=C(O)CCO/N=C(\c1ccc(CCNS(=O)(=O)c2ccc(Cl)cc2)cc1)c1cccnc1	Met
CC(C)(C)OC(=O)CCC/C=C(\c1ccc(CCNS(=O)(=O)c2ccc(Cl)cc2)cc1)c1cccnc1	Not met
O=C(O)CCC/C=C(\c1ccc(NS(=O)(=O)c2ccc(Cl)cc2)cc1)c1cccnc1	Not met
CCCCS(=O)(=O)NCCc1ccc(/C(=C\CCCC(=O)O)c2cccnc2)cc1	Met
Cc1ccc(S(=O)(=O)NCCc2ccc(/C(=C\C(=O)NCC(=O)O)c3cccnc3)cc2)cc1	Not met
O=C(O)CCC(CCCCNS(=O)(=O)c1ccc(Cl)cc1)CCCc1cccnc1 (stereo unspecified)	Met
O=C(O)CCCC(c1ccc(CCNS(=O)(=O)c2ccc(Cl)cc2)cc1)c1cccnc1 (stereo unspecified)	Not met
O=C(O)CCC/C=C(\c1ccc(CCNS(=O)(=O)c2ccc(Cl)cc2)cc1)c1ccc[n+]([O-])c1	Not met
O=C(O)C/C=C(\c1ccc(CCNS(=O)(=O)c2ccc(Cl)cc2)cc1)c1cccnc1	Not met
O=C(O)CCCC/C=C(\c1ccc(CCNS(=O)(=O)c2ccc(Cl)cc2)cc1)c1cccnc1	Met
O=C(O)CCC/C=C(\c1ccc(CCN(CC(=O)O)S(=O)(=O)c2ccc(Cl)cc2)cc1)c1cccnc1	Not met
O=C(O)CCC/C=C(\c1ccc(CCNS(=O)(=O)Cc2ccccc2)cc1)c1cccnc1	Met

---

Entries and their IC50
# Target Under Test: Thromboxane A2 receptor (Homo sapiens, UniProt P21731)
# Sequence (P21731 whole entry): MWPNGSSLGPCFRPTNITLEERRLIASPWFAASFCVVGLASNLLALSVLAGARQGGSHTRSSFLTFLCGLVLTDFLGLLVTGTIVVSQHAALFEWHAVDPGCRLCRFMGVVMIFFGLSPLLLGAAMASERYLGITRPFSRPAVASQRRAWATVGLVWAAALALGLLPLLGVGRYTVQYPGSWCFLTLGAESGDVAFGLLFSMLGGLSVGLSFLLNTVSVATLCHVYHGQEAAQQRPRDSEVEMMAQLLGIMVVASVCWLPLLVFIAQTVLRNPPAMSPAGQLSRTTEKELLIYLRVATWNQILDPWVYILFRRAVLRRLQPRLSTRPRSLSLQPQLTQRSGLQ

Compound	IC50 (nM)
O=C(O)CCC/C=C(\c1ccc(CCNS(=O)(=O)c2ccc(Cl)cc2)cc1)c1ccc[n+]([O-])c1	1100
O=C(O)CCC/C=C(/c1cccnc1)c1ccc2c(c1)CC(NS(=O)(=O)c1ccc(F)cc1)C2 (centres undefined)	9
O=C(O)CCC/C=C(/c1cccnc1)c1cccc(CNS(=O)(=O)c2ccc(Cl)cc2)c1	21
O=C(O)c1cccc(/C=C(\c2ccc(CCNS(=O)(=O)c3ccc(Cl)cc3)cc2)c2cccnc2)c1	100
Cc1ccc(S(=O)(=O)NCCc2ccc(/C(=C\C(=O)NCC(=O)O)c3cccnc3)cc2)cc1	3000
CCCCS(=O)(=O)NCCc1ccc(/C(=C\CCCC(=O)O)c2cccnc2)cc1	1100
O=C(O)CCC/C=C(\c1ccc(CCNC(=O)c2ccc(Cl)cc2)cc1)c1cccnc1	210
O=C(O)CCC/C=C(\c1ccc(CCNS(=O)(=O)c2ccc(Cl)cc2)cc1)c1cccnc1 [SAMIXOGREL]	19
O=S(=O)(NCCc1ccc(/C(=C\CCCc2nnn[nH]2)c2cccnc2)cc1)c1ccc(Cl)cc1	12
